- PROTOCOL: Study G1T28-1-01 plasma PK, first-in-human single dose
- Type: in vivo
- EXPERIMENTAL_SETUP: both, human, plasma, intravenous, […]2, healthy volunteers, BED cohort […]2 (n = 12), mean
PROPERTY_MEASURED: clearance (mL/min)

CN1CCN(c2ccc(Nc3ncc4cc5n(c4n3)C3(CCCCC3)CNC5=O)nc2)CC1 [trilaciclib] : 2100

* * *

- PROTOCOL: Study G1T28-02 Part 1 plasma PK (with E/P)
- Type: in vivo, human
- EXPERIMENTAL_SETUP: human, plasma, intravenous, ES-SCLC + E/P, 240 mg/m2, Cycle 1 Day 1 (n = 1)
PROPERTY_MEASURED: half-life

CN1CCN(c2ccc(Nc3ncc4cc5n(c4n3)C3(CCCCC3)CNC5=O)nc2)CC1 : 2.91 h

* * *

- PROTOCOL: Study G1T28-03 Part 1 plasma PK (with topotecan)
- Type: in vivo, human
- EXPERIMENTAL_SETUP: human, plasma, 240 mg/m2, ES-SCLC + topotecan, 240 mg/m2, Cycle 1 Day 1 (n = 14), geometric mean; read-out: AUC0-inf
PROPERTY_MEASURED: AUC(0-inf) (ng·h/mL)

CN1CCN(c2ccc(Nc3ncc4cc5n(c4n3)C3(CCCCC3)CNC5=O)nc2)CC1 : 2910

* * *

- PROTOCOL: Study G1T28-03 Part 1 plasma PK (with topotecan)
- Format: in vivo, human
- EXPERIMENTAL_SETUP: human, plasma; ES-SCLC + topotecan, 200 mg/m2, Cycle 1 Day 4 (n = 9), geometric mean
PROPERTY_MEASURED: half-life (h)

CN1CCN(c2ccc(Nc3ncc4cc5n(c4n3)C3(CCCCC3)CNC5=O)nc2)CC1 : 8.57

* * *

- PROTOCOL: Study G1T28-1-01 plasma PK, first-in-human single dose
- Format: in vivo
- EXPERIMENTAL_SETUP: both sexes, human, plasma; healthy volunteers, single 30-min IV 96 mg/m2 (n = 6), mean
PROPERTY_MEASURED: half-life (h)

CN1CCN(c2ccc(Nc3ncc4cc5n(c4n3)C3(CCCCC3)CNC5=O)nc2)CC1 : 14.7

* * *

- PROTOCOL: Study G1T28-03 Part 1 plasma PK (with topotecan)
- Format: in vivo, human
- EXPERIMENTAL_SETUP: human, plasma, 200 mg/m2, ES-SCLC + topotecan, 200 mg/m2, Cycle 1 Day 4 (n = 9), geometric mean
PROPERTY_MEASURED: clearance (mL/min)

CN1CCN(c2ccc(Nc3ncc4cc5n(c4n3)C3(CCCCC3)CNC5=O)nc2)CC1 [trilaciclib] : 2850
